molecular target: IKZF2 (Homo sapiens (Human), UniProt Q96SW2+Q9UKS7); assay: In vitro IKZF2 HiBit Assay (HEK293T Flp-in-HiBiT cells); format: cell-based; conditions: HEK293T Flp-in-HiBiT cells, 6 hrs incubation; read-out: IKZF2 HiBit DC50
Sequence (Q9UKS7 whole entry): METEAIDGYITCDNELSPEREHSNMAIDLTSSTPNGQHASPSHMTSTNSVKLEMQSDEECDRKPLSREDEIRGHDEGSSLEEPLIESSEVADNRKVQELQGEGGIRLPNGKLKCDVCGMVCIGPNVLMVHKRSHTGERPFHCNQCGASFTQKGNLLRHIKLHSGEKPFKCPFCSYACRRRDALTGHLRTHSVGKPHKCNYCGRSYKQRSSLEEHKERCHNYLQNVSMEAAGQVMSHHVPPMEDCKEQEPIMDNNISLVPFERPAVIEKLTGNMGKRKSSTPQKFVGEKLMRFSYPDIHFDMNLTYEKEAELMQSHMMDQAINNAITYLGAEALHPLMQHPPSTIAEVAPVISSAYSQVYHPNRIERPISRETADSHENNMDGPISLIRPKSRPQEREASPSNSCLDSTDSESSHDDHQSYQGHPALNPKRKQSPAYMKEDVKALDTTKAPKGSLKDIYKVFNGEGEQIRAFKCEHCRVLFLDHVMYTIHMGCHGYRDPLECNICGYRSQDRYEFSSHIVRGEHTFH
Sequence (Q96SW2 whole entry): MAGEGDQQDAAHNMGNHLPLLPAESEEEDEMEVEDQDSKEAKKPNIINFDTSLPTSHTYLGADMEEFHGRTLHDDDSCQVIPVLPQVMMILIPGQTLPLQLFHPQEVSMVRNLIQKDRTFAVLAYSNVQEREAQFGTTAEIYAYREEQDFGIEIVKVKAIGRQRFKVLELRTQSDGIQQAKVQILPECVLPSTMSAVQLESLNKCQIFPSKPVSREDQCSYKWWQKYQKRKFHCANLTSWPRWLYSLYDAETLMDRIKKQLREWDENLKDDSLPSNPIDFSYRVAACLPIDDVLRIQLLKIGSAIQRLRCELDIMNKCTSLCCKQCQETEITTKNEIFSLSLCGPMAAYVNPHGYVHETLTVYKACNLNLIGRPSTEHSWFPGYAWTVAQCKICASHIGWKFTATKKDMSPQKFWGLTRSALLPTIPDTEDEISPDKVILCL
Sequence (Q16531 2-1140 partner): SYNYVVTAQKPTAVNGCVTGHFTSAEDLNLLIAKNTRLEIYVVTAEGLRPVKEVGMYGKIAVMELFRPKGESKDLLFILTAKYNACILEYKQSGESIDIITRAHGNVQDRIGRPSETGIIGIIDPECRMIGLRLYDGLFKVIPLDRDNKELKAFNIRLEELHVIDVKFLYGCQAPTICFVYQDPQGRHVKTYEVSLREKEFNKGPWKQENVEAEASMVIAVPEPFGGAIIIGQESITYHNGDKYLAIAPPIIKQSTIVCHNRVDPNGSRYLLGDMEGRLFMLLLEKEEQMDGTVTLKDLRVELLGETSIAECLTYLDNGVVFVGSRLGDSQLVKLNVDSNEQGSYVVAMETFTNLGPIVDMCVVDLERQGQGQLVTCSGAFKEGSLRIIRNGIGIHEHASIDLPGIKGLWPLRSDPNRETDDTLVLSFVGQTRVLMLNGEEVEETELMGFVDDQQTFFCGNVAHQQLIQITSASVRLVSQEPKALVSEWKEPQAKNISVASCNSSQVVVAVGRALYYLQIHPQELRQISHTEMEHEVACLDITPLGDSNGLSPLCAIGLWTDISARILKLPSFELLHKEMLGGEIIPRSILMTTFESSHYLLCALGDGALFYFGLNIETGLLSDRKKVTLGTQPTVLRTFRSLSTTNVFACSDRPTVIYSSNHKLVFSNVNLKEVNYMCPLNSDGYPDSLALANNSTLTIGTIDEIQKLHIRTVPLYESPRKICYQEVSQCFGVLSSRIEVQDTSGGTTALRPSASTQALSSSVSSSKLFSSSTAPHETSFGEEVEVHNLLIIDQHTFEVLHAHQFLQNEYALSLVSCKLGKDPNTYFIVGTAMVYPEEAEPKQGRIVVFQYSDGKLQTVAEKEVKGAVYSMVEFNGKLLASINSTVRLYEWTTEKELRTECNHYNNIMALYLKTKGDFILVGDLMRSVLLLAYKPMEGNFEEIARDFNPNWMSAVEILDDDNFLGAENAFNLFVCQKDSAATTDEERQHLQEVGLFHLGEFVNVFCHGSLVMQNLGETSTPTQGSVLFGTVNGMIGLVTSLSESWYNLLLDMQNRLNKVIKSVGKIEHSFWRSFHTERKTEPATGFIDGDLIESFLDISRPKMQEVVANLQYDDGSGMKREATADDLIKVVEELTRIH
Where a name gives a salt, the structure may show the parent alone.
readoutLabel: DC50

// query DC50 value for entry O=C1CCC(N2Cc3cc(-c4cc(CN5CCCC5)c5ncccc5n4)ccc3C2=O)C(=O)N1 (stereo not drawn)
1 to 10 nM

// query DC50 value for entry CCn1ccc2nc(-c3ccc4c(c3)CN(C3CCC(=O)NC3=O)C4=O)cc(CN3CCC3)c21 (stereo not drawn)
1 to 10 nM

// query DC50 value for entry CC(Oc1ccnc2c(CN3CCCC3)cc(-c3ccc4c(c3)CN(C3CCC(=O)NC3=O)C4=O)nc12)C(F)(F)F (stereo not drawn)
1 to 10 nM

// query DC50 value for entry Cn1ccc2c(CN3CCC4(CCCC4)CC3)cc(-c3ccc4c(c3)CN(C3CCC(=O)NC3=O)C4=O)nc21 (stereo not drawn)
1 to 10 nM

// query DC50 value for entry CNC(=O)Cn1ccc2c(CN3CCCC3)cc(-c3ccc4c(c3)CN(C3CCC(=O)NC3=O)C4=O)nc21 (stereo not drawn)
10 to 100 nM

// query DC50 value for entry COC1CCN(Cc2cc(-c3ccc4c(c3F)CN(C3CCC(=O)NC3=O)C4=O)nc3c2ccn3C2CS(=O)(=O)C2)CC1 (stereo not drawn) [Example 266, formate]
1 to 10 nM

// query DC50 value for entry Nc1n[nH]c2c(CN3CC4COCC4C3)cc(-c3ccc4c(c3)CN(C3CCC(=O)NC3=O)C4=O)nc12 (stereo not drawn)
100 to 1000 nM

// query DC50 value for entry CS(=O)(=O)Nc1n[nH]c2c(CN3CCCC3)cc(-c3ccc4c(c3F)CN(C3CCC(=O)NC3=O)C4=O)nc12 (stereo not drawn)
> 10000 nM

// query DC50 value for entry CN(C)C(=O)Cn1ccc2c(CN3CCCC3)cc(-c3ccc4c(c3)CN(C3CCC(=O)NC3=O)C4=O)nc21 (stereo not drawn)
100 to 1000 nM

// query DC50 value for entry Cn1ccc2c(CN3CCCCC3)cc(-c3ccc4c(c3)CN(C3CCC(=O)NC3=O)C4=O)nc21 (stereo not drawn)
< 1 nM

// query DC50 value for entry O=C1CCC(N2Cc3cc(-c4cc(CN5CCC(O)CC5)c5ccn(C6COC6)c5n4)ccc3C2=O)C(=O)N1 (stereo not drawn)
10 to 100 nM

// query DC50 value for entry CS(=O)(=O)CCn1ccc2c(CN3CCCC3)cc(-c3ccc4c(c3)CN(C3CCC(=O)NC3=O)C4=O)nc21 (stereo not drawn)
10 to 100 nM

// query DC50 value for entry O=C1CCC(N2Cc3cc(-c4cc(CN5CCCC5)c5ccccc5n4)ccc3C2=O)C(=O)N1 (stereo not drawn)
< 1 nM

// query DC50 value for entry O=C1CCC(N2Cc3cc(-c4cc(CN5CCC(CO)C5)c5ccn(C6COC6)c5n4)ccc3C2=O)C(=O)N1 (stereo not drawn)
10 to 100 nM

// query DC50 value for entry Cn1ccc2c(CN3CCCC3)c(Cl)c(-c3ccc4c(c3)CN(C3CCC(=O)NC3=O)C4=O)nc21 (stereo not drawn)
1 to 10 nM

----------
target: IKZF2 (Homo sapiens (Human), UniProt Q96SW2+Q9UKS7); assay: In vitro IKZF2 HiBit Assay (HEK293T Flp-in-HiBiT cells); type: cell-based; details: HEK293T Flp-in-HiBiT cells, 6 hrs incubation; read-out: IKZF2 HiBit DC50
Please provide measured DC50 for the entries that follow.

// query DC50 value for entry `O=C1CC[C@H](N2Cc3cc(-c4cc(CN5CCCC5)c5ccn(-c6ncco6)c5n4)ccc3C2=O)C(=O)N1`
1 to 10 nM

// query DC50 value for entry CC1c2cc(-c3cc(CN4CCCC4)c4ccn(C5CS(=O)(=O)C5)c4n3)ccc2C(=O)N1C1CCC(=O)NC1=O (stereo not shown)
1 to 10 nM

// query DC50 value for entry O=C1CCC(N2Cc3cc(-c4cc(CN5CC(O)C5)c5cc[nH]c5n4)ccc3C2=O)C(=O)N1 (stereo not shown)
10 to 100 nM

// query DC50 value for entry CC(C)Nc1n[nH]c2c(CN3CCCC3)cc(-c3ccc4c(c3Cl)CN(C3CCC(=O)NC3=O)C4=O)nc12 (stereo not shown)
1 to 10 nM

----------
Please provide measured Dmax for the entries that follow.
target: IKZF1 (Homo sapiens (Human), UniProt Q13422+Q96SW2); assay: In vitro IKZF1 HiBit Assay (HEK293T Flp-in-HiBiT-IKZF1 stable cell line); format: cell-based; details: HEK-293T; HEK293T Flp-in-HiBiT-IKZF1 stable cell line, 6 hrs incubation; read-out: IKZF1 HiBit Dmax (%)
Sequence (Q13422 whole entry): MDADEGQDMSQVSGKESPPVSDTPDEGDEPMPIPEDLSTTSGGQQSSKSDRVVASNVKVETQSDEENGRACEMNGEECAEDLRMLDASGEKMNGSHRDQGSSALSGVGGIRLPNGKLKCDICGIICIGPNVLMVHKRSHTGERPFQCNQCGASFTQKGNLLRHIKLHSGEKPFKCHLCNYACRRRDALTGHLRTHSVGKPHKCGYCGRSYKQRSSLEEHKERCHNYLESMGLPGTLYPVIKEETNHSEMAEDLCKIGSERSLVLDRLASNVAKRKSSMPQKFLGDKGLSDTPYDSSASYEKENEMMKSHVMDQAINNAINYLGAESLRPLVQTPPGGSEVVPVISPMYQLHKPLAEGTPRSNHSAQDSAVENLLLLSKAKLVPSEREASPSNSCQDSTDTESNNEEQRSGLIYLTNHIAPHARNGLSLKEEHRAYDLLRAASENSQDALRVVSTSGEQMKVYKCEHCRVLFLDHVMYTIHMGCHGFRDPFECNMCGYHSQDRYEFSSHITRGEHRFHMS
Sequence (Q96SW2 whole entry): as the sequence (Q96SW2 whole entry) above
Sequence (Q16531 2-1140 partner): as the sequence (Q16531 2-1140 partner) above

// query Dmax value for entry O=C1CCC(N2Cc3cc(-c4cc(CN5CCCC5)c5cnn(C6CCC6)c5n4)ccc3C2=O)C(=O)N1 (centres unmarked) [Example 206]
< 20%

// query Dmax value for entry Cn1ccc2c(CN3CCCC3)cc(-c3cc4c(cc3F)C(=O)N(C3CCC(=O)NC3=O)C4)nc21 (centres unmarked) [Example 82]
< 20%

// query Dmax value for entry O=C1CCC(N2Cc3cc(-c4cc(CN5CCCC5)c5nccc(OCCO)c5n4)ccc3C2=O)C(=O)N1 (centres unmarked) [Example 285]
< 20%

// query Dmax value for entry O=C1CCC(N2Cc3c(ccc(-c4cc(CN5CCCC5)c5ccn(C6COC6)c5n4)c3F)C2=O)C(=O)N1 (centres unmarked) [Example 223]
20 to 40%

// query Dmax value for entry O=C1CCC(N2Cc3cc(-c4cc(CN5CC6COCC6C5)c5ccn(C6COC6)c5n4)ccc3C2=O)C(=O)N1 (centres unmarked) [Example 186]
< 20%

// query Dmax value for entry O=C1CCC(N2Cc3cc(-c4cc(CN5CCC(F)C5)c5ccn(C6CC6)c5n4)ccc3C2=O)C(=O)N1 (centres unmarked) [Example 141]
< 20%

// query Dmax value for entry N#CCn1ccc2c(CN3CCCC3)cc(-c3ccc4c(c3)CN(C3CCC(=O)NC3=O)C4=O)nc21 (centres unmarked) [Example 133]
< 20%

// query Dmax value for entry O=C1CCC(N2Cc3cc(-c4cc(CN5CC(O)C5)c5cc[nH]c5n4)ccc3C2=O)C(=O)N1 (centres unmarked) [Example 111]
< 20%

// query Dmax value for entry O=C1CC[C@H](N2Cc3cc(-c4cc(CN5CCCC5)c5ccn(-c6ncco6)c5n4)ccc3C2=O)C(=O)N1 [Example 267]
< 20%

// query Dmax value for entry N#CC1CCN(Cc2cc(-c3ccc4c(c3)CN(C3CCC(=O)NC3=O)C4=O)nc3c2ccn3C2COC2)CC1 (centres unmarked) [Example 192]
< 20%

// query Dmax value for entry O=C1CCC(N2Cc3cc(-c4cc(CN5CC6COCC(C6)C5)c5cc[nH]c5n4)ccc3C2=O)C(=O)N1 (centres unmarked) [Example 121]
< 20%

// query Dmax value for entry Cn1ccc2c(CN3CC4(COC4)C3)cc(-c3ccc4c(c3)CN(C3CCC(=O)NC3=O)C4=O)nc21 (centres unmarked) [Example 91]
20 to 40%

// query Dmax value for entry O=C1CCC(N2Cc3cc(-c4cc(CN5CCCC5C(F)(F)F)c5ccn(C6COC6)c5n4)ccc3C2=O)C(=O)N1 (centres unmarked) [Example 253]
< 20%

// query Dmax value for entry O=C1CCC(N2Cc3cc(-c4cc(CN5CCC(O)CC5)c5ccn(C6COC6)c5n4)ccc3C2=O)C(=O)N1 (centres unmarked) [Example 162]
20 to 40%

// query Dmax value for entry O=C1CCC(N2Cc3cc(-c4cc(CN5CCC(CO)CC5)c5ccn(C6COC6)c5n4)ccc3C2=O)C(=O)N1 (centres unmarked) [Example 163]
20 to 40%

// query Dmax value for entry Cn1ccc2c(CN3CCn4nccc4C3)cc(-c3ccc4c(c3)CN(C3CCC(=O)NC3=O)C4=O)nc21 (centres unmarked) [Example 107]
< 20%

// query Dmax value for entry Cn1ccc2c(CN3Cc4ccccc4C3)cc(-c3ccc4c(c3)CN(C3CCC(=O)NC3=O)C4=O)nc21 (centres unmarked) [Example 67]
20 to 40%

// query Dmax value for entry Cn1ccc2c(CN3CC4(CCC4)C3)cc(-c3ccc4c(c3)CN(C3CCC(=O)NC3=O)C4=O)nc21 (centres unmarked) [Example 112]
20 to 40%

// query Dmax value for entry O=C1CCC(N2Cc3cc(-c4cc(CN5CCC6(CC5)COC6)c5ccn(C6COC6)c5n4)ccc3C2=O)C(=O)N1 (centres unmarked) [Example 188]
< 20%

// query Dmax value for entry O=C1CCC(N2Cc3c(ccc(-c4cc(CN5CCCC5)c5[nH]nc(NC6CCC6)c5n4)c3F)C2=O)C(=O)N1 (centres unmarked) [Example 295]
40 to 60%

// query Dmax value for entry CC(C)Nc1n[nH]c2c(CN3CCCC3)cc(-c3ccc4c(c3)CN(C3(C)CCC(=O)NC3=O)C4=O)nc12 (centres unmarked) [Example 294]
< 20%

// query Dmax value for entry O=C1CCC(N2Cc3cc(-c4ncn5ccc(CN6CCCC6)cc45)ccc3C2=O)C(=O)N1 (centres unmarked) [Example 312]
< 20%

// query Dmax value for entry O=C1CCC(N2Cc3cc(-c4cc(CN5CCCC5)c5cn(C6COC6)nc5n4)ccc3C2=O)C(=O)N1 (centres unmarked) [Example 317]
< 20%

// query Dmax value for entry O=C1CCC(N2Cc3cc(-c4cc(CN5CCCC5)cc5cncn45)ccc3C2=O)C(=O)N1 (centres unmarked) [Example 1]
< 20%

// query Dmax value for entry O=C1CCC(N2Cc3cc(-c4cc(CN5CCCC5)c5c(C(F)(F)F)n[nH]c5n4)ccc3C2=O)C(=O)N1 (centres unmarked) [Example 134]
< 20%

// query Dmax value for entry Cn1ccc2c(CN3CCCCCC3)cc(-c3ccc4c(c3)CN(C3CCC(=O)NC3=O)C4=O)nc21 (centres unmarked) [Example 302]
20 to 40%

// query Dmax value for entry Cc1cc(-c2ccc3c(c2)CN(C2CCC(=O)NC2=O)C3=O)nc2c1nc(CN1CCCC1)n2C1COC1 (centres unmarked) [Example 259]
< 20%

// query Dmax value for entry O=C1CCC(N2Cc3cc(-c4cc(CN5CCCC5)c5[nH]nc(C6CC6)c5n4)ccc3C2=O)C(=O)N1 (centres unmarked) [Example 202]
40 to 60%

// query Dmax value for entry O=C1CCC(N2Cc3cc(-c4cc(CN5CCC(O)C5)c5cc[nH]c5n4)ccc3C2=O)C(=O)N1 (centres unmarked) [Example 120]
20 to 40%
